Would you mind telling me the reported pIC50 of each entry?
# experimentalTarget: Human Factor XIa (Homo sapiens (Human), UniProt P03951)
# Sequence (P03951 388-625): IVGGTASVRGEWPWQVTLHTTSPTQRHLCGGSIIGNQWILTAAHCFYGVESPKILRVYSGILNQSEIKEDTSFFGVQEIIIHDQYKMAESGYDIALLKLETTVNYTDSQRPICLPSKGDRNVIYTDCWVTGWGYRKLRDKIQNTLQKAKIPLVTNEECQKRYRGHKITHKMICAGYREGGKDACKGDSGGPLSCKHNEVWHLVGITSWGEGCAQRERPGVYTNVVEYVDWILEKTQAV
# Sequence (P03951 19-387 partner): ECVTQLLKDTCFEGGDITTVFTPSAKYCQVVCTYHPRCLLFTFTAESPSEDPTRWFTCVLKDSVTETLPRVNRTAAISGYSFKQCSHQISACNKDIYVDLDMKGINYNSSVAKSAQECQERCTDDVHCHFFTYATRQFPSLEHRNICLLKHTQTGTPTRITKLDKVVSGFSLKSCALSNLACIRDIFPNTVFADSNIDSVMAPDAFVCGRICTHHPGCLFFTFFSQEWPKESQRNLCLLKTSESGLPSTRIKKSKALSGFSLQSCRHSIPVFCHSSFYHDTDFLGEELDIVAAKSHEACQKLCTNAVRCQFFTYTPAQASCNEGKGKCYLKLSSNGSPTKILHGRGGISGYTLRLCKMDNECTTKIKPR
Structures can show the parent of a compound that is named as a salt.
Please report pIC50 as the negative decimal logarithm of the molar concentration, giving only the number.

pIC50 for COC(=O)Nc1ccc(-c2[nH]c([C@@H]3C[C@H](N4CCN(S(C)(=O)=O)CC4)CN3C(=O)C3CCN(C(=N)N)CC3)nc2Cl)cc1 [Example 99, trihydrochloride] is 8.92

Entry O=C(Nc1ccc2nn[nH]c2c1)[C@@H]1C[C@H](N2CCOCC2)CN1C(=O)/C=C/c1cc(Cl)ccc1-n1cnnn1 [Example 43, trifluoroacetate] , pIC50 reported as 7.96

Per the records, this compound ( CS(=O)(=O)N1CCN([C@H]2C[C@@H](C(=O)Nc3ccc(C(=O)O)cc3)N(C(=O)c3ccc(C(=N)N)cc3)C2)CC1 [Example 20, bis(trifluoroacetate)] ) has pIC50 equal to 8.49

Lookup result for COC(=O)Nc1ccc(-c2cnc([C@@H]3C[C@H](N4CCN(S(C)(=O)=O)CC4)CN3C(=O)C3CCN(C(=N)N)CC3)[nH]2)cc1 [Example 98, trihydrochloride] ; measured pIC50: 8.64

In plain terms, CS(=O)(=O)N1CCN([C@H]2C[C@@H](C(=O)Nc3ccc(C(=O)O)cc3)N(C(=O)C3CCN(C(=N)N)CC3)C2)CC1 [Example 9, bis(trifluoroacetate)] has a documented pIC50 of 7.77

Lab note: measured pIC50 of NC[C@H]1CC[C@H](C(=O)N2C[C@@H](N3CCN(S(=O)(=O)C4CC4)CC3)C[C@H]2C(=O)Nc2ccc(C(=O)O)cc2)CC1 [Example 55, bis(trifluoroacetate)] was 7.85

Data point: COC(=O)Nc1ccc(-c2[nH]c([C@@H]3C[C@H](C4CCN(S(C)(=O)=O)CC4)CN3C(=O)c3ccc(NC(=N)N)cc3)nc2Cl)cc1 [Example 79, bis(trifluoroacetate)] ; pIC50 = 8.19

Record summary for CS(=O)(=O)N1CCC([C@H]2C[C@@H](C(=O)Nc3ccc(C(=O)O)cc3)N(C(=O)c3ccc(C(=N)N)cc3)C2)CC1 [Example 111, hydrochloride] : reported pIC50 = 8.07

pIC50 in this record for O=C(O)c1ccc(NC(=O)[C@@H]2C[C@H](N3CCOCC3)CN2C(=O)/C=C/c2cc(Cl)ccc2-n2cnnn2)cc1 [Example 37, trifluoroacetate] : 7.89

Briefly, pIC50 measured for COC(=O)Nc1ccc(-c2cnc([C@@H]3C[C@H](C4CCN(S(C)(=O)=O)CC4)CN3C(=O)C3CCN(C(=N)N)CC3)[nH]2)cc1 [Example 69, dihydrochloride] : 8.13

pIC50 reading for COC(=O)Nc1ccc(-c2[nH]c([C@@H]3C[C@H](C4CCN(S(C)(=O)=O)CC4)CN3C(=O)N3CCN(C(=N)N)CC3)nc2Cl)cc1 [Example 88, bis(trifluoroacetate)] : 8.27

###

# experimentalTarget: human thrombin (Homo sapiens (Human))
# experimentDescription: Thrombin enzyme activity, chromogenic substrate S-2366
# Assay type: biochemical
# studyConditions: human thrombin 0.12 U/mL, 300 μM S-2366, pH7.4; read-out: In vitro Thrombin inhibitory activity IC50
Where a name gives a salt, the structure may show the parent alone.
measuredAttribute: IC50

compound O=C(O)c1ccc(NC(=O)[C@@H]2C[C@H](N3CCOCC3)CN2C(=O)/C=C/c2cc(Cl)ccc2-n2cnnn2)cc1 [Example 37, trifluoroacetate] , IC50 observed: > 100 µM

Per the record, O=C(Nc1ccccc1)[C@@H]1C[C@H](N2CCN(S(=O)(=O)c3ccccc3)CC2)CN1C(=O)/C=C/c1cc(Cl)ccc1-n1cnnn1 [Example 39] has IC50 of > 100 µM

IC50 recorded for this compound, COC(=O)Nc1ccc(-c2[nH]c([C@@H]3C[C@H](C4CCN(S(C)(=O)=O)CC4)CN3C(=O)N3CCN(C(=N)N)CC3)nc2Cl)cc1 [Example 88, bis(trifluoroacetate)] , is 57 µM

Item: COC(=O)Nc1ccc(-c2[nH]c([C@@H]3C[C@H](N4CCN(S(C)(=O)=O)CC4)CN3C(=O)C3CCN(C(=N)N)CC3)nc2Cl)cc1 [Example 99, trihydrochloride] | IC50: 84 µM

get_value(item= O=C(Nc1ccc2nn[nH]c2c1)[C@@H]1C[C@H](N2CCOCC2)CN1C(=O)/C=C/c1cc(Cl)ccc1-n1cnnn1 [Example 43, trifluoroacetate] , readout=IC50) returns > 100 µM

The compound listed as COC(=O)Nc1ccc(-c2[nH]c([C@@H]3C[C@H](C4CCN(S(C)(=O)=O)CC4)CN3C(=O)[C@H]3CC[C@H]([C@H](C)N)CC3)nc2Cl)cc1 [Example 86, bis(trifluoroacetate)] has a reported IC50 of > 100 µM

Sample COC(=O)Nc1ccc(-c2[nH]c([C@@H]3C[C@H](C4CCN(S(C)(=O)=O)CC4)CN3C(=O)/C=C/c3cc(Cl)ccc3-n3cnnn3)nc2Cl)cc1 [Example 94] ; IC50 observed: > 33 µM

// IC50 value for COC(=O)Nc1ccc(-c2cnc([C@@H]3C[C@H](C4CCN(S(C)(=O)=O)CC4)CN3C(=O)C3CCN(C(=N)N)CC3)[nH]2)cc1 [Example 69, dihydrochloride] : > 100 µM

What the record says about CS(=O)(=O)N1CCC([C@H]2C[C@@H](C(=O)Nc3ccc(C(=O)O)cc3)N(C(=O)c3ccc(C(=N)N)cc3)C2)CC1 [Example 111, hydrochloride] : IC50 is > 100 µM

compound COC(=O)Nc1ccc(-c2[nH]c([C@@H]3C[C@H](C4CCN(S(C)(=O)=O)CC4)CN3C(=O)C3CCN(C(=N)N)CC3)nc2Cl)cc1 [Example 71, dihydrochloride] , IC50 observed: 94 µM

Value of measured IC50 for the entry COC(=O)Nc1ccc(-c2cnc([C@@H]3C[C@H](C4CCN(S(C)(=O)=O)CC4)CN3C(=O)c3ccc(C(=N)N)cc3)[nH]2)cc1 [Example 73, dihydrochloride] : 37 µM

###

# experimentalTarget: Human Factor XIa (Homo sapiens (Human), UniProt P03951)
Where a name gives a salt, the structure may show the parent alone.
measuredAttribute: pIC50
Note on units: pIC50 is unitless, being -log10 of a concentration expressed in mol/L.

For this compound ( O=C(Nc1ccccc1)[C@@H]1C[C@H](N2CCN(S(=O)(=O)c3ccccc3)CC2)CN1C(=O)/C=C/c1cc(Cl)ccc1-n1cnnn1 [Example 39] ), measured pIC50 is 7.11

compound Cn1cc(Cl)c2c(F)c(C(=O)N3C[C@@H](C4CCN(S(C)(=O)=O)CC4)C[C@H]3C(=O)Nc3ccc(C(=O)O)cc3)ccc21 [Example 93] , pIC50 observed: 7.74

# pIC50 of COC(=O)Nc1ccc(-c2[nH]c([C@@H]3C[C@H](C4CCN(S(C)(=O)=O)CC4)CN3C(=O)C3CCN(C(=N)N)CC3)nc2Cl)cc1 [Example 71, dihydrochloride] = 8.66

For record COC(=O)Nc1ccc(-c2cnc([C@@H]3C[C@H](C4CCN(S(C)(=O)=O)CC4)CN3C(=O)c3ccc(C(=N)N)cc3)[nH]2)cc1 [Example 73, dihydrochloride] the listed pIC50 is 8.36
